The entries below come with measured EC50 cAMP, Alpha Screen values attached.
Target: T1, human VPAC2 receptor (human, UniProt P41587 24-438)
T1 sequence (looked up): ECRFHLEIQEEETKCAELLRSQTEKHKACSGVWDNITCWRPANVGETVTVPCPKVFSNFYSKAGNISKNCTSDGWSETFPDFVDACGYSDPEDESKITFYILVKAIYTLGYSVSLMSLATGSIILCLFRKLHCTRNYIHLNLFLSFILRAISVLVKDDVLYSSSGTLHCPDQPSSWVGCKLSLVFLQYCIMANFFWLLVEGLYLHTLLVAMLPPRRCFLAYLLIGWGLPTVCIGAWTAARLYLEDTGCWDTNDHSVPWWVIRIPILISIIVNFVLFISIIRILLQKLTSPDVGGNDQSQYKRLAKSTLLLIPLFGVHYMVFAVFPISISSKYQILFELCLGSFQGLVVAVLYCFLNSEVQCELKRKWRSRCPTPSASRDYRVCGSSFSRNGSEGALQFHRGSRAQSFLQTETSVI
Assay: cell-based or functional assay
Where no end group is shown, it is not given here. [ ]: non-standard residue; d: D form. The star is where a group is joined. Hexanoyl = CCCCCC(=O)*; Aib = CC(C)(N)C(=O)O

# binder, EC50 cAMP, Alpha Screen [nM]
rows = [
    ("HSDGVFTDNYTRLRKQVAAKKYLQSIKNKRYGGPSSGAPPPS [P102]", 27.4),
    ("Hexanoyl-HSDAVFTDNYTRLRKQVAAKKYLQS[Aib]KNKRYGGPSSGAPPPS (ends and bridges not checked) [P188]", 0.32),
    ("Hexanoyl-HSDAVFTDNYTRLR[Aib]QLAA[Aib]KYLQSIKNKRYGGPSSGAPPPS (ends and bridges not checked) [P291]", 0.36),
]
